target: panel of more than 300 wild-type and mutant kinases (313 kinase panel) (Homo sapiens, UniProt P29376); experiment: Kinase profiling in a biochemical assay panel (mobility shift assays and ELISA), %-inhibition at 1 μM; selectivity entropy; settings: kinase LTK; compound at 1 μM
Give %-inhibition of LTK for every item shown.
One number for each entry, in %.

compound: Cc1cn(-c2cc(NC(=O)c3ccc(C)c(Nc4nccc(-c5cccnc5)n4)c3)cc(C(F)(F)F)c2)cn1
valueUnit: %
%-inhibition of LTK: 7.51

compound: CC(=O)Nc1cccc(-n2c(=O)n(C3CC3)c(=O)c3c(Nc4ccc(I)cc4F)n(C)c(=O)c(C)c32)c1
valueUnit: %
%-inhibition of LTK: -7

compound: CO[C@H]1C[C@@H]2CC[C@@H](C)[C@@](O)(O2)C(=O)C(=O)N2CCCC[C@H]2C(=O)O[C@H]([C@H](C)C[C@@H]2CC[C@@H](OCCO)[C@H](OC)C2)CC(=O)[C@H](C)/C=C(\C)[C@@H](O)[C@@H](OC)C(=O)[C@H](C)C[C@H](C)/C=C/C=C/C=C/1C
valueUnit: %
%-inhibition of LTK: -12

compound: COc1cc2nccc(Oc3ccc(NC(=O)C4(C(=O)Nc5ccc(F)cc5)CC4)cc3)c2cc1OC [cabozantinib]
valueUnit: %
%-inhibition of LTK: 61

compound: CS(=O)(=O)CCNCc1ccc(-c2ccc3ncnc(Nc4ccc(OCc5cccc(F)c5)c(Cl)c4)c3c2)o1
valueUnit: %
%-inhibition of LTK: 4.66

Hi team, please reply with %-inhibition of LTK for each item in this list.
1. CCN(CC)CCNC(=O)c1c(C)[nH]c(/C=C2\C(=O)Nc3ccc(F)cc32)c1C
2. COc1cc(Nc2c(C#N)cnc3cc(OCCCN4CCN(C)CC4)c(OC)cc23)c(Cl)cc1Cl
3. O=S(=O)(c1cccc2cnccc12)N1CCCNCC1

[81, 59, -3.76]

The compound listed as N#CC[C@H](C1CCCC1)n1cc(-c2ncnc3[nH]ccc23)cn1 has a reported %-inhibition of LTK of 97

====

biological target: panel of more than 300 wild-type and mutant kinases (313 kinase panel) (Homo sapiens, UniProt O75582); assay: Kinase profiling in a biochemical assay panel (mobility shift assays and ELISA), %-inhibition at 1 μM; selectivity entropy; conditions: kinase MSK1; 1 μM
valueType: %-inhibition of MSK1 (%)
Answers are plain numbers, in %.

molecule: CO[C@H]1C[C@@H]2CC[C@@H](C)[C@@](O)(O2)C(=O)C(=O)N2CCCC[C@H]2C(=O)O[C@H]([C@H](C)C[C@@H]2CC[C@@H](OC(=O)C(C)(CO)CO)[C@H](OC)C2)CC(=O)[C@H](C)/C=C(\C)[C@@H](O)[C@@H](OC)C(=O)[C@H](C)C[C@H](C)/C=C/C=C/C=C/1C [temsirolimus]
%-inhibition of MSK1 / %: 0
--
molecule: CCCS(=O)(=O)Nc1ccc(F)c(C(=O)c2c[nH]c3ncc(-c4ccc(Cl)cc4)cc23)c1F [vemurafenib]
%-inhibition of MSK1 / %: 0.256

Noted for CC(=O)Nc1cccc(-n2c(=O)n(C3CC3)c(=O)c3c(Nc4ccc(I)cc4F)n(C)c(=O)c(C)c32)c1 [trametinib] : its %-inhibition of MSK1 reads -0.531

====

target: panel of more than 300 wild-type and mutant kinases (313 kinase panel) (Homo sapiens); assay: Kinase profiling in a biochemical assay panel (mobility shift assays and ELISA), %-inhibition at 1 μM; selectivity entropy; conditions: kinase FGR; compound at 1 μM
valueType: %-inhibition of FGR (%)
One number for each entry, in %.

compound: CCCS(=O)(=O)Nc1ccc(F)c(C(=O)c2c[nH]c3ncc(-c4ccc(Cl)cc4)cc23)c1F
valueUnit: %
testResult: 93
--
compound: COc1cc2nccc(Oc3ccc(NC(=O)C4(C(=O)Nc5ccc(F)cc5)CC4)cc3)c2cc1OC [cabozantinib]
valueUnit: %
testResult: 94
--
compound: Cc1ccc(C(=O)Nc2ccc(CN3CCN(C)CC3)c(C(F)(F)F)c2)cc1C#Cc1cnc2cccnn12
valueUnit: %
testResult: 101

Consider now this further compound.
Value (%-inhibition of FGR, panel of more than 300 wild-type and mutant kinases (313 kinase panel) (Homo sapiens)) for record CNC(=O)c1cc(Oc2ccc(NC(=O)Nc3ccc(Cl)c(C(F)(F)F)c3)c(F)c2)ccn1 = 56

====

target: panel of more than 300 wild-type and mutant kinases (313 kinase panel) (Homo sapiens, UniProt Q13233); assay: Kinase profiling in a biochemical assay panel (mobility shift assays and ELISA), %-inhibition at 1 μM; selectivity entropy; conditions: kinase MAP3K1; compound at 1 μM
Sequence (Q13233 whole entry, change not shown): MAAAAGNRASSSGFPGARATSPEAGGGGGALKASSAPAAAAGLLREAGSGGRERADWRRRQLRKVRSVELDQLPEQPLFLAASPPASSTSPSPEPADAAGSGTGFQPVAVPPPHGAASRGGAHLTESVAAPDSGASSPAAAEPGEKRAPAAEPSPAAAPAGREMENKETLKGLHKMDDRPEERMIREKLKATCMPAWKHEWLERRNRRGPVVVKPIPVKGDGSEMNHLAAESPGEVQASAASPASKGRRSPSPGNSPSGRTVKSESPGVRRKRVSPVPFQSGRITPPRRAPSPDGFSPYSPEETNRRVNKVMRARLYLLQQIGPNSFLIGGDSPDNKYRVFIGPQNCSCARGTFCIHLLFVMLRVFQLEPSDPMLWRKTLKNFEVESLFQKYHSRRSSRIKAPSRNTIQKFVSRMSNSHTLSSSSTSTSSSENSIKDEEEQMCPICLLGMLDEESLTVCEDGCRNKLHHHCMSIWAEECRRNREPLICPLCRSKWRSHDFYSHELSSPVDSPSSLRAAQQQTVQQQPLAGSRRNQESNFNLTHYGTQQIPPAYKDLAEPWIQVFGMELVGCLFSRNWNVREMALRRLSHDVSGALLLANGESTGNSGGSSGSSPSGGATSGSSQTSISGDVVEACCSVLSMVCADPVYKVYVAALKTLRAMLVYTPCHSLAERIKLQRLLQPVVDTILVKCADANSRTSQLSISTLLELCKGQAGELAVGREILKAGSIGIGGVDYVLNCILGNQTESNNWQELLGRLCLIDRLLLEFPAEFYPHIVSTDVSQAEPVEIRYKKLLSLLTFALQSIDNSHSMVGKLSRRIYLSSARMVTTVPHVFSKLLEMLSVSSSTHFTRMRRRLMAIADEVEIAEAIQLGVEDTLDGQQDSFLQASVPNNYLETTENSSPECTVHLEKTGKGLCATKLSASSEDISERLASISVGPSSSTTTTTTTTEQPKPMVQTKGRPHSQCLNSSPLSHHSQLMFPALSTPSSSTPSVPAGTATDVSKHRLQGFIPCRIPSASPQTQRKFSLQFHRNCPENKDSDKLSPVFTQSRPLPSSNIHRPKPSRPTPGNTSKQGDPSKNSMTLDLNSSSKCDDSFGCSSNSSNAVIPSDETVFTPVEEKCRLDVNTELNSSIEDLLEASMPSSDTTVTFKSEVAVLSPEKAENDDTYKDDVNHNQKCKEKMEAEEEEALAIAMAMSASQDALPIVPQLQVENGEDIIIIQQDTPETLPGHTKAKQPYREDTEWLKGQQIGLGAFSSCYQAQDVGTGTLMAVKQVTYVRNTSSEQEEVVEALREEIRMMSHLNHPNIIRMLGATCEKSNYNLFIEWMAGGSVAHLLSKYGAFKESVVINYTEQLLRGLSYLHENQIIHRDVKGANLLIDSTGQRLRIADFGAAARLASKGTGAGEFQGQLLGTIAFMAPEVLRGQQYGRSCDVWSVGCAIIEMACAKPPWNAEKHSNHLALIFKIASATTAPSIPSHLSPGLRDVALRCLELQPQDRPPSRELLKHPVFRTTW
Answer each item with its documented %-inhibition of MAP3K1.

Please review the following examples before continuing.
compound: CC(=O)Nc1cccc(-n2c(=O)n(C3CC3)c(=O)c3c(Nc4ccc(I)cc4F)n(C)c(=O)c(C)c32)c1
testResult: 99%
//
compound: Cc1ccc(Nc2nccc(N(C)c3ccc4c(C)n(C)nc4c3)n2)cc1S(N)(=O)=O
testResult: 37%
//
compound: Cc1ccc(C(=O)Nc2ccc(CN3CCN(C)CC3)c(C(F)(F)F)c2)cc1C#Cc1cnc2cccnn12
testResult: -9%

For every item in the list below, what is its measured %-inhibition of MAP3K1?
1. CS(=O)(=O)CCNCc1ccc(-c2ccc3ncnc(Nc4ccc(OCc5cccc(F)c5)c(Cl)c4)c3c2)o1
2. CO[C@H]1C[C@@H]2CC[C@@H](C)[C@@](O)(O2)C(=O)C(=O)N2CCCC[C@H]2C(=O)O[C@H]([C@H](C)C[C@@H]2CC[C@@H](OC(=O)C(C)(CO)CO)[C@H](OC)C2)CC(=O)[C@H](C)/C=C(\C)[C@@H](O)[C@@H](OC)C(=O)[C@H](C)C[C@H](C)/C=C/C=C/C=C/1C
3. COc1cc2nccc(Oc3ccc(NC(=O)C4(C(=O)Nc5ccc(F)cc5)CC4)cc3)c2cc1OC [cabozantinib]
4. CNC(=O)c1cc(Oc2ccc(NC(=O)Nc3ccc(Cl)c(C(F)(F)F)c3)c(F)c2)ccn1

1.76%
6%
36%
4%

====

I'd appreciate it if you could supply %-inhibition of PKCγ values for the items below.
biological target: panel of more than 300 wild-type and mutant kinases (313 kinase panel) (Homo sapiens, UniProt P05129); assay: Kinase profiling in a biochemical assay panel (mobility shift assays and ELISA), %-inhibition at 1 μM; selectivity entropy; conditions: kinase PKCγ; 1 μM
Answers are plain numbers, in %.

These solved cases illustrate the format of a correct answer.
smilesCode: COc1cc(Nc2c(C#N)cnc3cc(OCCCN4CCN(C)CC4)c(OC)cc23)c(Cl)cc1Cl
valueType: %-inhibition of PKCγ
valueUnit: %
testResult: 12
//
smilesCode: CC(=O)Nc1cccc(-n2c(=O)n(C3CC3)c(=O)c3c(Nc4ccc(I)cc4F)n(C)c(=O)c(C)c32)c1
valueType: %-inhibition of PKCγ
valueUnit: %
testResult: 0.381
//
smilesCode: CN(C)C/C=C/C(=O)Nc1cc2c(Nc3ccc(F)c(Cl)c3)ncnc2cc1O[C@H]1CCOC1
valueType: %-inhibition of PKCγ
valueUnit: %
testResult: 3
//
smilesCode: Cc1ccc(Nc2nccc(N(C)c3ccc4c(C)n(C)nc4c3)n2)cc1S(N)(=O)=O
valueType: %-inhibition of PKCγ
valueUnit: %
testResult: 9
//
smilesCode: CC(C)(C)c1nc(-c2cccc(NS(=O)(=O)c3c(F)cccc3F)c2F)c(-c2ccnc(N)n2)s1
valueType: %-inhibition of PKCγ
valueUnit: %
testResult: -0.381
//
smilesCode: CCCS(=O)(=O)Nc1ccc(F)c(C(=O)c2c[nH]c3ncc(-c4ccc(Cl)cc4)cc23)c1F
valueType: %-inhibition of PKCγ
valueUnit: %
testResult: -4.39
//
smilesCode: C[C@@H](Oc1cc(-c2cnn(C3CCNCC3)c2)cnc1N)c1c(Cl)ccc(F)c1Cl
valueType: %-inhibition of PKCγ
valueUnit: %
testResult: -0.662

Would you kindly look at the next entry?
Entry CCN(CC)CCNC(=O)c1c(C)[nH]c(/C=C2\C(=O)Nc3ccc(F)cc32)c1C ; %-inhibition of PKCγ = 17

====

target: panel of more than 300 wild-type and mutant kinases (313 kinase panel) (Homo sapiens, UniProt P22455, V550E); test: Kinase profiling in a biochemical assay panel (mobility shift assays and ELISA), %-inhibition at 1 μM; selectivity entropy; settings: kinase FGFR4(V550E); compound at 1 μM
Sequence (P22455 22-802 V550E): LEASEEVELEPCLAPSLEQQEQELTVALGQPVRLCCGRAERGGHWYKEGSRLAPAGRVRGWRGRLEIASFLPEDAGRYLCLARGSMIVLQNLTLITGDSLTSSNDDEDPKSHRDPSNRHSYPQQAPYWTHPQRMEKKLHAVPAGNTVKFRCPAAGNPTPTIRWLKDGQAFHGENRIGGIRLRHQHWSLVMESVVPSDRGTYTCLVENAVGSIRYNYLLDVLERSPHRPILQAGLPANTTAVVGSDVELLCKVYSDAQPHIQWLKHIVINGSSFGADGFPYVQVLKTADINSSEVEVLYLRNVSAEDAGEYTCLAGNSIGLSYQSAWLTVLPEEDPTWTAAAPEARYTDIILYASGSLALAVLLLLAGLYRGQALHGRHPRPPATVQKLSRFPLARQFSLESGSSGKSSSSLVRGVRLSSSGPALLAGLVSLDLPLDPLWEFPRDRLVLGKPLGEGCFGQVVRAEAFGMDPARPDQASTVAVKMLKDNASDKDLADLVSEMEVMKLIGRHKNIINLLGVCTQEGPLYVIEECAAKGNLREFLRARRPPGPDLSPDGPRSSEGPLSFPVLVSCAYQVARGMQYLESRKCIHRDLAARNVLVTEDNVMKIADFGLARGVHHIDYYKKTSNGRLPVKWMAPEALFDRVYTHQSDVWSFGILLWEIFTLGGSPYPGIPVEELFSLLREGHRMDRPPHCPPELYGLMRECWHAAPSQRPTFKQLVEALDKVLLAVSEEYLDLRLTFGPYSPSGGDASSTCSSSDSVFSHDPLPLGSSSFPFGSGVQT
valueType: %-inhibition of FGFR4(V550E) (%)
Numbers only, in %.

Consider the reported %-inhibition of FGFR4(V550E) for these compounds:
compound: CNC(=O)c1cc(Oc2ccc(NC(=O)Nc3ccc(Cl)c(C(F)(F)F)c3)c(F)c2)ccn1
valueUnit: %
%-inhibition of FGFR4(V550E): -0.119

compound: O=S(=O)(c1cccc2cnccc12)N1CCCNCC1
valueUnit: %
%-inhibition of FGFR4(V550E): -2.85

compound: CC(C)(C)c1nc(-c2cccc(NS(=O)(=O)c3c(F)cccc3F)c2F)c(-c2ccnc(N)n2)s1
valueUnit: %
%-inhibition of FGFR4(V550E): -5

compound: CO[C@H]1C[C@@H]2CC[C@@H](C)[C@@](O)(O2)C(=O)C(=O)N2CCCC[C@H]2C(=O)O[C@H]([C@H](C)C[C@@H]2CC[C@@H](OC(=O)C(C)(CO)CO)[C@H](OC)C2)CC(=O)[C@H](C)/C=C(\C)[C@@H](O)[C@@H](OC)C(=O)[C@H](C)C[C@H](C)/C=C/C=C/C=C/1C
valueUnit: %
%-inhibition of FGFR4(V550E): -0.119

Each compound below has a reported value. Please supply its %-inhibition of FGFR4(V550E).
1. CCCS(=O)(=O)Nc1ccc(F)c(C(=O)c2c[nH]c3ncc(-c4ccc(Cl)cc4)cc23)c1F
2. COc1cc2nccc(Oc3ccc(NC(=O)C4(C(=O)Nc5ccc(F)cc5)CC4)cc3)c2cc1OC [cabozantinib]
3. N#CC[C@H](C1CCCC1)n1cc(-c2ncnc3[nH]ccc23)cn1

[1.79, -4, 5]
